Could you please report measured pIC50 for the items listed next?
Target: HDAC7 (Homo sapiens, UniProt Q8WUI4)
Sequence (Q8WUI4 1-952): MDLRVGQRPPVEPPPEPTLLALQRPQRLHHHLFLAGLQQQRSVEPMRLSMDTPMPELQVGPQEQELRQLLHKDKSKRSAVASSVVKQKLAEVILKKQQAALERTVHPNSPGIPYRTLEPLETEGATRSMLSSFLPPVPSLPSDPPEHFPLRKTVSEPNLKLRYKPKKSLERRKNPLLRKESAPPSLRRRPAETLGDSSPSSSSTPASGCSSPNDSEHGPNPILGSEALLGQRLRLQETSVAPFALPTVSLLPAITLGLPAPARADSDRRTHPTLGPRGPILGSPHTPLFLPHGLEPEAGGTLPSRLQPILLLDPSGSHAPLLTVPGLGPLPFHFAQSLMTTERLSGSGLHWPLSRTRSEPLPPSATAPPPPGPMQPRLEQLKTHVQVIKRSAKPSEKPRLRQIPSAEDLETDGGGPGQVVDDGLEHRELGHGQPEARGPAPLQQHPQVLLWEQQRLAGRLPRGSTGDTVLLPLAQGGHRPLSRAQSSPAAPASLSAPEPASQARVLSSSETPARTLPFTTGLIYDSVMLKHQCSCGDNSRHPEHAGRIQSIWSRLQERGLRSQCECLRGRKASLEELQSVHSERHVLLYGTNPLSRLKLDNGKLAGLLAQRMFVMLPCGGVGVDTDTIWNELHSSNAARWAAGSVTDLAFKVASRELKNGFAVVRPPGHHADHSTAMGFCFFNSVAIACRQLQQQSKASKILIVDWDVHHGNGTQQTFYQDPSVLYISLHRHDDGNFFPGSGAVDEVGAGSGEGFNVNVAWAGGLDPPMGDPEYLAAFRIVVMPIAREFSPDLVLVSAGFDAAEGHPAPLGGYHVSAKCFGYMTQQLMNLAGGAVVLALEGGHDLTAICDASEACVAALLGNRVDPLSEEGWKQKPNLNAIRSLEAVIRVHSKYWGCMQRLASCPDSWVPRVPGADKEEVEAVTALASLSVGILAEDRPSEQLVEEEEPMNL
pIC50 field: float, defined as -log10 of concentration (mol/L).

Data point: COc1cc(-c2cc(CN3c4ccccc4Sc4ccc(C#N)cc43)ccc2C(=O)NO)cc(OC)c1OC [Compound 19a] ; pIC50 = 4.75

Data point: "O=C(NO)c1ccc(CNC23CC4CC(CC(C4)C2)C3)cc1-c1ccccc1" ; pIC50 = 4.89

Data point: "O=C(NO)c1ccc(CN2CCCc3ccccc3C2)cc1-c1ccccc1" ; pIC50 = 6.08

Data point: "NC(=O)c1ccc2c(c1)N(Cc1ccc(C(=O)NO)c(-c3ccccc3)c1)c1ccccc1S2" ; pIC50 = 6.80

Data point: N#Cc1ccc2c(c1)N(Cc1ccc(C(=O)NO)c(-c3ccc(F)cc3)c1)c1ccccc1S2 [Compound 19c] ; pIC50 = 6.27

Data point: COc1ccc(-c2cc(CN3c4ccccc4Sc4ccc(C#N)cc43)ccc2C(=O)NO)cc1 [Compound 19b] ; pIC50 = 5.39

Data point: "O=C(NO)c1ccc(CN2c3ccccc3Sc3ccccc32)cc1-c1ccccc1" ; pIC50 = 6.15
